Test system: E. coli
Assay: Antibiotic disc susceptibility testing (BSAC method)
Assay type: cell-based, Escherichia coli
Conditions: antibiotic disks (Oxoid), amount per disc per antibiotic (5-30 μg)
Method: Strains were tested with twenty different antibiotic disks (Oxoid, UK) representing the major classes of antimicrobial compounds. […] The minimum inhibitory concentration (MIC) of the peptide-PNA conjugants were determined using a method modified from Hacek et al and Friedman et al: Peptide-PNA conjugants, obtained as lyophilized powder (Panagene, Korea), were dissolved in ddH20. […] Growth (OD550) was monitored every 5 mins, each experiment was performed in triplicate.
MEASURE NAME: Sensitive (S)/Resistant (R), E. coli

1) CCC[C@@H]1C[C@@H](C(=O)N[C@@H]([C@H]2O[C@H](SC)[C@H](O)[C@@H](O)[C@H]2O)[C@H](C)Cl)N(C)C1 ... R
2) CC[C@H]1OC(=O)[C@H](C)[C@@H](O[C@H]2C[C@@](C)(OC)[C@@H](O)[C@H](C)O2)[C@H](C)[C@@H](O[C@@H]2O[C@H](C)C[C@H](N(C)C)[C@H]2O)[C@](C)(O)C[C@@H](C)CN(C)[C@H](C)[C@@H](O)[C@]1(C)O ... R
3) CC1COc2c(N3CCN(C)CC3)c(F)cc3c(=O)c(C(=O)O)cn1c23 (stereo not drawn) ... S
